- assayTarget: UniProt O14842
- Sequence (O14842 whole entry): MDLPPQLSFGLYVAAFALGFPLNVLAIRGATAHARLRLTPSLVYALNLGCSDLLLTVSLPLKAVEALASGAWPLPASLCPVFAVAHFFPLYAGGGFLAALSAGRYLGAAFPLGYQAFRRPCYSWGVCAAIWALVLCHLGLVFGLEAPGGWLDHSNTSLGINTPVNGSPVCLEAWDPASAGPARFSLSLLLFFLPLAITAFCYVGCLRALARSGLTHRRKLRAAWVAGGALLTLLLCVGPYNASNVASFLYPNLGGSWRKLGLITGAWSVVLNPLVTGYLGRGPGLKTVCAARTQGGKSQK
- experimentDescription: FDSS-based intracellular calcium assay (Human GRP40 in vitro assay)
- Format: cell-based
- Parameters: 3xFLAG; expressed in transfected cells
- testConditions: cells expressing GPR40, intracellular Ca2+ response, FDSS reader; read-out: hGPR40 EC50
Where a name gives a salt, the structure may show the parent alone.
valueType: EC50 (nM)
Please reply with the bare figure in nM and do not write the unit itself.

Solved cases (6 shown):
molecule	valueType	endpointResult
COc1ccc(F)c(N2CCC(Oc3ccc(N4CC(C(F)(F)F)C(C)C4CC(=O)O)cc3)CC2)c1 (single isomer, unassigned) [Example 26, Isomer 2, HCl]	EC50	8400
CCOc1ccc(F)c(N2CCC(Oc3ccc(N4C[C@H](Cc5cccc(OC)c5)C[C@@H]4CC(=O)O)cc3)CC2)c1 [Example 124, TFA]	EC50	380
COc1cc(N2CCC(Oc3ccc(N4C[C@H](OC)[C@@H](C)[C@@H]4CC(=O)O)cn3)CC2)c(Cl)cn1 [Example 97]	EC50	110
CCOc1ccc(F)c(N2CCC(Oc3ccc(N4CC[C@@H](C)[C@@H]4CC(=O)O)cc3)CC2)c1 [Example 104, TFA]	EC50	250
COc1ccc(F)c(N2CCC(Oc3ccc(N4CC(F)(F)C[C@@H]4CC(=O)O)cc3)CC2)c1 [Example 5, TFA]	EC50	66
COc1cc(N2CCC(Oc3ccc(N4C[C@H](OC)[C@@H](C)[C@@H]4CC(=O)O)cn3)C(C)C2)c(Cl)cn1 (stereo partly shown) [Example 91, HCl]	EC50	190

Prompt: Any idea what its EC50 is? The molecule is CCOc1ccc(F)c(N2CCC(Oc3ccc(N4C[C@H](n5ccnn5)C[C@@H]4CC(=O)O)cc3)CC2)c1 [Example 81]
Completion: 1000

Prompt: Any idea what its EC50 is? The molecule is COc1cc(N2CCC(Oc3cnc(N4C[C@H](OC)[C@@H](C)[C@@H]4CC(=O)O)c(F)c3)C(C)C2)c(Cl)cn1 (stereo partly shown) [Example 171]
Completion: 410

Prompt: Any idea what its EC50 is? The molecule is CCOc1ccc(F)c(N2CCC(Oc3ccc(N4C[C@H](C(F)(F)F)C[C@@H]4CC(=O)O)cc3)C(CC(C)C)C2)c1 (single isomer, unassigned) [Example 35, Isomer 2, HCl]
Completion: 330

Prompt: Any idea what its EC50 is? The molecule is CCOc1ccc(F)c(N2CCC(Oc3ccc(N4C[C@H](Oc5ncccn5)C[C@@H]4CC(=O)O)cc3)CC2)c1 [Example 78, TFA]
Completion: 1600

----------
- assayTarget: UniProt:O14842
Where a name gives a salt, the structure may show the parent alone.
valueType: EC50
Give the number first and the unit second.

Solved cases (3 shown):
molecule	assayTarget	EC50
CCOc1ccc(F)c(N2CCC(Oc3ccc(N4C[C@H](C(F)(F)F)C[C@@H]4CC(=O)O)cc3)CC2)c1	UniProt:O14842	70 nM
COc1ccc(F)c(N2CCC(Oc3ccc(N4C[C@H](OC)C[C@@H]4CC(=O)O)cc3)CC2)c1 [Example 4, HCl]	UniProt:O14842	240 nM
COc1cc(N2CCC(Oc3ccc(N4C[C@H](O)[C@@H](C)[C@@H]4CC(=O)O)c(F)c3)C(C)C2)c(Cl)cn1 (some centres unmarked)	UniProt:O14842	1600 nM

Prompt: Any idea what its EC50 is? The molecule is CCOc1ccc(F)c(N2CCC(Oc3ccc(N4C[C@H](c5ccc(OC)nc5)C[C@@H]4CC(=O)O)cc3)CC2)c1 [Example 123, TFA]
Completion: 51 nM

Prompt: Any idea what its EC50 is? The molecule is CCOc1ccc(F)c(N2CCC(Oc3ccc(N4C[C@H](OC)[C@@H](C)[C@@H]4CC(=O)O)cn3)C(C)C2)c1 (some centres unmarked) [Example 117, HCl]
Completion: 14 nM

Prompt: Any idea what its EC50 is? The molecule is COc1ccc(F)c(N2CCC(Oc3ccc(N4C[C@H](OC(C)C)C[C@@H]4CC(=O)O)cc3)C(C)C2)c1 (some centres unmarked) [Example 38, TFA]
Completion: 73 nM
